src = patent US6472526B1

# maps each entry to its IC50
- System: Ras farnesyl transferase (Homo sapiens, UniProt P49354+P49356)
- Construct: made in house
- Test Details: In vitro inhibitory activity for Ras farnesyl transferase, H-Ras substrate
- Assay type: biochemical
- Assay Setup: recombinant farnesyl transferase 4.5 nM, Ras substrate protein 1.5 μM, tritium-farnesylpyrophosphate 0.15 μM, 30 minutes at 37° C.; read-out: H-Ras IC50
Assay Metric: IC50

Molecule: CN1CCN(C(=O)c2cn(Cc3cncn3CCc3ccccc3F)cc2-c2cccc3ccccc23)CC1
Assay Metric: IC50
Reading: 1 nM
//
Molecule: CC(c1ccccc1)n1cncc1Cn1cc(C(=O)N2CCN(C)CC2)c(-c2cccc3ccccc23)c1 (stereo in doubt)
Assay Metric: IC50
Reading: 0.85 nM
//
Molecule: Cc1ccccc1C(=O)c1cn(Cc2c[nH]cn2)cc1-c1cccc2ccccc12
Assay Metric: IC50
Reading: 150 nM
//
Molecule: O=C(c1ccc(Cc2ccccc2)cc1)c1cn(Cc2c[nH]cn2)cc1-c1cccc2ccccc12
Assay Metric: IC50
Reading: 120 nM
//
Molecule: Cn1cnc(Cn2cc(C(=O)c3ccc(F)cc3)c(-c3cccc4ccccc34)c2)c1
Assay Metric: IC50
Reading: 4.5 nM
//
Molecule: Cc1ccc(CCn2cncc2Cn2cc(C(=O)N3CCN(C)CC3)c(-c3cccc4ccccc34)c2)cc1
Assay Metric: IC50
Reading: 2 nM
//
Molecule: O=C(c1ccccc1)c1cn(Cc2c[nH]cn2)cc1-c1cccc2ccccc12
Assay Metric: IC50
Reading: 120 nM
//
Molecule: CN1CCN(C(=O)c2cn(Cc3cncn3Cc3ccc(C#N)cc3)cc2-c2cccc3ccccc23)CC1
Assay Metric: IC50
Reading: 0.4 nM
//
Molecule: Cc1ccc(Cn2cncc2Cn2cc(C(=O)N3CCN(C)CC3)c(-c3cccc4ccccc34)c2)cc1
Assay Metric: IC50
Reading: 1.6 nM
//
Molecule: COc1ccc(C(=O)c2cn(Cc3c[nH]cn3)cc2-c2cccc3ccccc23)cc1
Assay Metric: IC50
Reading: 390 nM
//
Molecule: COC(=O)c1nc(Cc2cncn2Cc2ccc(Cl)cc2)sc1-c1cccc2ccccc12
Assay Metric: IC50
Reading: 7 nM
//
Molecule: Cc1cccc(C(=O)c2cn(Cc3c[nH]cn3)cc2-c2cccc3ccccc23)c1
Assay Metric: IC50
Reading: 270 nM
//
Molecule: N#Cc1ccc(Cn2cncc2Cn2cc(C(=S)N3CCOCC3)c(-c3cccc4ccccc34)c2)cc1
Assay Metric: IC50
Reading: 4 nM
//
Molecule: O=C(c1ccc(Cl)cc1Cl)c1cn(Cc2c[nH]cn2)c(Cc2ccccc2)c1-c1cccc2ccccc12
Assay Metric: IC50
Reading: 50 nM
//
Molecule: O=C(c1cn(Cc2c[nH]cn2)cc1-c1cccc2ccccc12)N1CCOCC1
Assay Metric: IC50
Reading: 30 nM
//
Molecule: O=C(c1cn(Cc2cncn2Cc2cccc3ccccc23)cc1-c1cccc2ccccc12)N1CCOCC1
Assay Metric: IC50
Reading: 1 nM
//
Molecule: O=C(c1cn(Cc2cncn2Cc2ccc(Br)cc2)cc1-c1cccc2ccccc12)N1CCOCC1
Assay Metric: IC50
Reading: 4 nM
//
Molecule: O=C(c1cn(Cc2c[nH]cn2)cc1-c1ccnc2ccccc12)N1CCOCC1
Assay Metric: IC50
Reading: 230 nM
//
Molecule: CN1CCN(C(=O)c2cn(Cc3cncn3Cc3ccc(Cl)cc3)cc2-c2cccc3ccccc23)CC1
Assay Metric: IC50
Reading: 1 nM
//
Molecule: CN1CCN(C(=O)c2cn(Cc3cncn3Cc3ccc4ccccc4c3)cc2-c2cccc3ccccc23)CC1
Assay Metric: IC50
Reading: 2 nM
//
Molecule: O=C(c1nc(Cc2cnc[nH]2)oc1-c1cccc2ccccc12)N1CCOCC1
Assay Metric: IC50
Reading: 1200 nM
//
Molecule: COc1ccc(CCn2cncc2Cn2cc(C(=O)N3CCN(C)CC3)c(-c3cccc4ccccc34)c2)cc1
Assay Metric: IC50
Reading: 1 nM
//
Molecule: COCCN(C)C(=O)c1cn(Cc2cncn2CCc2ccccc2OC)cc1-c1cccc2ccccc12
Assay Metric: IC50
Reading: 2 nM
//
Molecule: CSCc1cccc(C(=O)c2cn(Cc3c[nH]cn3)cc2-c2cccc3ccccc23)c1
Assay Metric: IC50
Reading: 160 nM
//
Molecule: COCCN(C)C(=O)c1cn(Cc2cncn2CCc2ccc3ccccc3c2)cc1-c1cccc2ccccc12
Assay Metric: IC50
Reading: 3 nM
//
Molecule: COCCN(C)C(=O)c1cn(Cc2cncn2CCc2cccc(Cl)c2)cc1-c1cccc2ccccc12
Assay Metric: IC50
Reading: 2 nM
//
Molecule: COC(=O)[C@H](CCSC)NC(=O)c1cn(CCCc2c[nH]cn2)cc1-c1cccc2ccccc12
Assay Metric: IC50
Reading: 10000 nM
//
Molecule: COCCN(C)C(=O)c1cn(Cc2cncn2C)cc1-c1cccc2ccccc12
Assay Metric: IC50
Reading: 1 nM
//
Molecule: N#Cc1ccc(Cn2cncc2Cn2cc(C(=O)c3ccc(Br)cc3)c(-c3cccc4ccccc34)c2)cc1
Assay Metric: IC50
Reading: 4 nM
//
Molecule: COCCN(C)C(=O)c1cn(Cc2cncn2Cc2ccc(C#N)cc2)nc1-c1cccc2ccccc12
Assay Metric: IC50
Reading: 20 nM
//
Molecule: COCCN(C)C(=O)c1cn(Cc2cncn2CCc2ccccc2F)cc1-c1cccc2ccccc12
Assay Metric: IC50
Reading: 1 nM

---

- System: Ras farnesyl transferase (Rattus norvegicus, UniProt Q02293+Q04631)
- Construct: endogenous in cells; host or cells: Rat2 fibroblasts transformed with H-Ras or with an H-Ras/K-Ras C-terminus fusion
- Test Details: In vivo (cellular) inhibitory activity for Ras farnesyl transferase, Rat2 cell line which expresses C-Harvey-Ras protein
- Assay type: cell-based
- Assay Setup: Rat2 cell line expressing C-Harvey-Ras; concentration inhibiting 50% of farnesyl bonding of Ras protein; read-out: H-Ras CIC50
# maps each entry to its IC50

Structure Smiles String: Cc1ccc(Cn2cncc2Cn2cc(C(=O)N3CCN(C)CC3)c(-c3cccc4ccccc34)c2)cc1
IC50 / nM: 25
--
Structure Smiles String: COC(=O)N1CCC(Cn2cncc2Cn2cc(C(=O)N3CCOCC3)c(-c3cccc4ccccc34)n2)CC1
IC50 / nM: 1200
--
Structure Smiles String: COC(=O)c1nc(Cc2cncn2Cc2ccc(Cl)cc2)sc1-c1cccc2ccccc12
IC50 / nM: 100
--
Structure Smiles String: C[C@@H](c1ccccc1)n1cncc1Cn1cc(C(=O)N2CCOCC2)c(-c2cccc3ccccc23)c1
IC50 / nM: 25
--
Structure Smiles String: Cc1cccc(Cn2cncc2Cn2cc(C(=O)N3CCN(C)CC3)c(-c3cccc4ccccc34)c2)c1
IC50 / nM: 25
--
Structure Smiles String: COCCN(C)C(=O)c1cn(Cc2cncn2Cc2ccc3ccccc3c2)cc1-c1cccc2ccccc12
IC50 / nM: 10
--
Structure Smiles String: COc1ccc(CCn2cncc2Cn2cc(C(=O)N3CCN(C)CC3)c(-c3cccc4ccccc34)c2)cc1
IC50 / nM: 20

---

# maps each entry to its IC50
- System: Ras farnesyl transferase (Rattus norvegicus, UniProt Q02293+Q04631)
- Construct: endogenous in cells; host or cells: Rat2 fibroblasts transformed with H-Ras or with an H-Ras/K-Ras C-terminus fusion
- Test Details: In vivo (cellular) inhibitory activity for Ras farnesyl transferase, Rat2 cell line which expresses C-Harvey-Ras protein
- Assay type: cell-based
- Assay Setup: Rat2 cell line expressing C-Harvey-Ras; concentration inhibiting 50% of farnesyl bonding of Ras protein; read-out: H-Ras CIC50
- Experimental: In the present experiment, Rat2 cell line which expresses C-Harvey-Ras protein having transforming activity and Rat2 cell line (Korean patent application No. 97-14409) which is transformed with fused protein of H-Ras substituted with polybasic lysine domain at C-terminus of K-Ras were used. The experiment was performed by the modified Declue's method (Declue. J. E. et al., Cancer Research, 1991, 51, 712). Hereinafter, the experimental method will be described in more detail. […]

Compound: O=C(c1ccc(Oc2ccccc2)cc1)c1cn(Cc2c[nH]cn2)cc1-c1cccc2ccccc12
System: Ras farnesyl transferase (Rattus norvegicus, UniProt Q02293+Q04631)
IC50 / nM: 3000
//
Compound: COCCN(C)C(=O)c1cn(Cc2cncn2Cc2ccc(Cl)cc2)nc1-c1cccc2ccccc12
System: Ras farnesyl transferase (Rattus norvegicus, UniProt Q02293+Q04631)
IC50 / nM: 100
//
Compound: Cn1cncc1Cn1cc(C(=O)N2CCOCC2)c(-c2cccc3ccccc23)c1
System: Ras farnesyl transferase (Rattus norvegicus, UniProt Q02293+Q04631)
IC50 / nM: 100
//
Compound: CN1CCN(C(=O)c2cn(Cc3cncn3CCc3ccccc3)cc2-c2cccc3ccccc23)CC1
System: Ras farnesyl transferase (Rattus norvegicus, UniProt Q02293+Q04631)
IC50 / nM: 12.5
//
Compound: CN1CCN(C(=O)c2cn(Cc3cncn3Cc3ccccc3Cl)cc2-c2cccc3ccccc23)CC1
System: Ras farnesyl transferase (Rattus norvegicus, UniProt Q02293+Q04631)
IC50 / nM: 25
//
Compound: COCCN(C)C(=O)c1cn(Cc2cncn2CCc2ccc(F)cc2)cc1-c1cccc2ccccc12
System: Ras farnesyl transferase (Rattus norvegicus, UniProt Q02293+Q04631)
IC50 / nM: 25
//
Compound: COCCN(C)C(=O)c1cn(Cc2cncn2Cc2cccc3ccccc23)cc1-c1cccc2ccccc12
System: Ras farnesyl transferase (Rattus norvegicus, UniProt Q02293+Q04631)
IC50 / nM: 25
//
Compound: CC(c1ccccc1)n1cncc1Cn1cc(C(=O)N2CCN(C)CC2)c(-c2cccc3ccccc23)c1 (stereo in doubt)
System: Ras farnesyl transferase (Rattus norvegicus, UniProt Q02293+Q04631)
IC50 / nM: 12.5
